- Test system: 616215-338-R-J1-PDC complex spheroid growth, % test/control
- measurement_description: Anticancer human tumor 616215-338-R-J1-PDC patient-derived colon adenocarcinoma cell line growth inhibition [Asc]
- settings: second compound 0.949 µM; first compound 0.0316 µM; active compounds read low
- Text: Multicellular complex tumor spheroid response to apoptosis pathway targeting inhibitors Alrizomadlin, Pelcitoclax, and Dasminapant in combination with a variety of drugs and investigational agents in selected tumor cell lines […] Compounds. […] If the clinical Cmax for an agent had not been determined, the highest concentration tested was 10 microM. […]
Mark true (1) only for viability, T/C values smaller than 40%; exact matches and larger values are false (0).

I wonder whether O=C(c1cc(Cc2n[nH]c(=O)c3ccccc23)ccc1F)N1CCN(C(=O)C2CC2)CC1 + CCN1C(C(=O)NC23CCC(C(=O)O)(CC2)CC3)C(c2cccc(Cl)c2F)C2(C(=O)Nc3cc(Cl)ccc32)C12CCCCC2 has viability, T/C below 40%. Can you tell?
false (0)

Field entry: C=C(F)C(=O)N1CCN(c2nc(OCC3CCCN3C)nc3c2CCN(c2cccc4cccc(Cl)c24)C3)CC1CC#N (stereo not given) + CCN1C(C(=O)NC23CCC(C(=O)O)(CC2)CC3)C(c2cccc(Cl)c2F)C2(C(=O)Nc3cc(Cl)ccc32)C12CCCCC2
false (0)

Field entry: O=C(c1ccc(F)c(F)c1Nc1ccc(I)cc1F)N1CC(O)([C@@H]2CCCCN2)C1 + CCN1C(C(=O)NC23CCC(C(=O)O)(CC2)CC3)C(c2cccc(Cl)c2F)C2(C(=O)Nc3cc(Cl)ccc32)C12CCCCC2
true (1)

Field entry: CNC(C)C(=O)NC1CN(S(=O)(=O)c2cccc(S(=O)(=O)N3CCC4CCC(C(=O)NC(c5ccccc5)c5ccccc5)N4C(=O)C(NC(=O)C(C)NC)C3)c2)CCC2CCC(C(=O)NC(c3ccccc3)c3ccccc3)N2C1=O (stereo not given) + CCN1C(C(=O)NC23CCC(C(=O)O)(CC2)CC3)C(c2cccc(Cl)c2F)C2(C(=O)Nc3cc(Cl)ccc32)C12CCCCC2
false (0)

Field entry: COc1c(OCCCN2CCOCC2)ccc2c3n(c(=NC(=O)c4cnc(N)nc4)nc12)CCN3 + CCN1C(C(=O)NC23CCC(C(=O)O)(CC2)CC3)C(c2cccc(Cl)c2F)C2(C(=O)Nc3cc(Cl)ccc32)C12CCCCC2
true (1)

====

- Tested on: 616215-338-R-J1-PDC complex spheroid growth, % test/control
- measurement_description: Anticancer human tumor 616215-338-R-J1-PDC cell line growth inhibition [Asc];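 note: spheroids exposed to agents for seven days before readout; 100% = DMSO vehicle control viability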
- settings: second compound 10 µM; first compound 0.0316 µM; active compounds read low
Mark MET only for viability, T/C values smaller than 20%; exact matches and larger values are NOT MET.

I wonder whether O=C(c1cc(Cc2n[nH]c(=O)c3ccccc23)ccc1F)N1CCN(C(=O)C2CC2)CC1 + Cc1c(S(C)(=O)=O)c(-c2cc(F)cc(N3CCN(c4ccc(NS(=O)(=O)c5ccc(NC(CCN6CCC(C(=O)OCCCP(=O)(O)O)CC6)CSc6ccccc6)c(S(=O)(=O)C(F)(F)F)c5)cc4)CC3)c2)c(-c2ccc(Cl)cc2)n1C(C)C has viability, T/C below 20%. Can you tell?
NOT MET

Field entry: CCN1CCN(Cc2ccc(Nc3ncc(F)c(-c4cc(F)c5nc(C)n(C(C)C)c5c4)n3)nc2)CC1 + Cc1c(S(C)(=O)=O)c(-c2cc(F)cc(N3CCN(c4ccc(NS(=O)(=O)c5ccc(NC(CCN6CCC(C(=O)OCCCP(=O)(O)O)CC6)CSc6ccccc6)c(S(=O)(=O)C(F)(F)F)c5)cc4)CC3)c2)c(-c2ccc(Cl)cc2)n1C(C)C
NOT MET

Field entry: O=C(c1ccc(F)c(F)c1Nc1ccc(I)cc1F)N1CC(O)([C@@H]2CCCCN2)C1 + Cc1c(S(C)(=O)=O)c(-c2cc(F)cc(N3CCN(c4ccc(NS(=O)(=O)c5ccc(NC(CCN6CCC(C(=O)OCCCP(=O)(O)O)CC6)CSc6ccccc6)c(S(=O)(=O)C(F)(F)F)c5)cc4)CC3)c2)c(-c2ccc(Cl)cc2)n1C(C)C
MET

Field entry: Cn1ncnc1[C@H]1c2n[nH]c(=O)c3cc(F)cc(c23)N[C@@H]1c1ccc(F)cc1 + Cc1c(S(C)(=O)=O)c(-c2cc(F)cc(N3CCN(c4ccc(NS(=O)(=O)c5ccc(NC(CCN6CCC(C(=O)OCCCP(=O)(O)O)CC6)CSc6ccccc6)c(S(=O)(=O)C(F)(F)F)c5)cc4)CC3)c2)c(-c2ccc(Cl)cc2)n1C(C)C
MET

Field entry: C#Cc1c(F)ccc2cc(O)cc(-c3ncc4c(N5CC6CCC(C5)N6)nc(OCC56CCCN5CC(F)C6)nc4c3F)c12 (configuration not stated) + Cc1c(S(C)(=O)=O)c(-c2cc(F)cc(N3CCN(c4ccc(NS(=O)(=O)c5ccc(NC(CCN6CCC(C(=O)OCCCP(=O)(O)O)CC6)CSc6ccccc6)c(S(=O)(=O)C(F)(F)F)c5)cc4)CC3)c2)c(-c2ccc(Cl)cc2)n1C(C)C
NOT MET

Field entry: C=C(F)C(=O)N1CCN(c2nc(OCC3CCCN3C)nc3c2CCN(c2cccc4cccc(Cl)c24)C3)CC1CC#N (configuration not stated) + Cc1c(S(C)(=O)=O)c(-c2cc(F)cc(N3CCN(c4ccc(NS(=O)(=O)c5ccc(NC(CCN6CCC(C(=O)OCCCP(=O)(O)O)CC6)CSc6ccccc6)c(S(=O)(=O)C(F)(F)F)c5)cc4)CC3)c2)c(-c2ccc(Cl)cc2)n1C(C)C
NOT MET

====

- Tested on: 616215-338-R-J1-PDC complex spheroid growth, % test/control
- measurement_description: Anticancer human tumor 616215-338-R-J1-PDC cell line growth inhibition [Asc];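 note: spheroids exposed to agents for seven days before readout; 100% = DMSO vehicle control viability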
- settings: second compound 0.1 µM; first compound 0.03 µM; active compounds read low
// reported viability, T/C for each item listed
State the answer as a number, implicitly in %.

Sample answers from the record:
| compound | target | unit_tag | number |
| --- | --- | --- | --- |
| NC(=O)C(=Cn1cnc(-c2cc(C(F)(F)F)cc(C(F)(F)F)c2)n1)c1cncnc1 + Cc1c(S(C)(=O)=O)c(-c2cc(F)cc(N3CCN(c4ccc(NS(=O)(=O)c5ccc(NC(CCN6CCC(C(=O)OCCCP(=O)(O)O)CC6)CSc6ccccc6)c(S(=O)(=O)C(F)(F)F)c5)cc4)CC3)c2)c(-c2ccc(Cl)cc2)n1C(C)C | 616215-338-R-J1-PDC complex spheroid growth, % test/control | % | 91.7 |
| CCN1C(C(=O)NC23CCC(C(=O)O)(CC2)CC3)C(c2cccc(Cl)c2F)C2(C(=O)Nc3cc(Cl)ccc32)C12CCCCC2 (stereo unspecified) + CNC(C)C(=O)NC1CN(S(=O)(=O)c2cccc(S(=O)(=O)N3CCC4CCC(C(=O)NC(c5ccccc5)c5ccccc5)N4C(=O)C(NC(=O)C(C)NC)C3)c2)CCC2CCC(C(=O)NC(c3ccccc3)c3ccccc3)N2C1=O | 616215-338-R-J1-PDC complex spheroid growth, % test/control | % | 78.2 |
| NC(=O)C(=Cn1cnc(-c2cc(C(F)(F)F)cc(C(F)(F)F)c2)n1)c1cncnc1 + CNC(C)C(=O)NC1CN(S(=O)(=O)c2cccc(S(=O)(=O)N3CCC4CCC(C(=O)NC(c5ccccc5)c5ccccc5)N4C(=O)C(NC(=O)C(C)NC)C3)c2)CCC2CCC(C(=O)NC(c3ccccc3)c3ccccc3)N2C1=O | 616215-338-R-J1-PDC complex spheroid growth, % test/control | % | 68.5 |
| Cc1nc(N2CCC3(CC2)COC(C)C3N)c(CO)nc1Sc1ccnc(N)c1Cl (stereo unspecified) + CNC(C)C(=O)NC1CN(S(=O)(=O)c2cccc(S(=O)(=O)N3CCC4CCC(C(=O)NC(c5ccccc5)c5ccccc5)N4C(=O)C(NC(=O)C(C)NC)C3)c2)CCC2CCC(C(=O)NC(c3ccccc3)c3ccccc3)N2C1=O | 616215-338-R-J1-PDC complex spheroid growth, % test/control | % | 85.1 |
| Cc1nc(N2CCC3(CC2)COC(C)C3N)c(CO)nc1Sc1ccnc(N)c1Cl (stereo unspecified) + Cc1c(S(C)(=O)=O)c(-c2cc(F)cc(N3CCN(c4ccc(NS(=O)(=O)c5ccc(NC(CCN6CCC(C(=O)OCCCP(=O)(O)O)CC6)CSc6ccccc6)c(S(=O)(=O)C(F)(F)F)c5)cc4)CC3)c2)c(-c2ccc(Cl)cc2)n1C(C)C | 616215-338-R-J1-PDC complex spheroid growth, % test/control | % | 102 |

Now, please, on to the next compound.
Find the recorded viability, T/C belonging to CCN1C(C(=O)NC23CCC(C(=O)O)(CC2)CC3)C(c2cccc(Cl)c2F)C2(C(=O)Nc3cc(Cl)ccc32)C12CCCCC2 (stereo unspecified) + Cc1c(S(C)(=O)=O)c(-c2cc(F)cc(N3CCN(c4ccc(NS(=O)(=O)c5ccc(NC(CCN6CCC(C(=O)OCCCP(=O)(O)O)CC6)CSc6ccccc6)c(S(=O)(=O)C(F)(F)F)c5)cc4)CC3)c2)c(-c2ccc(Cl)cc2)n1C(C)C and report it.
101
